- Tested on: SK-OV-3
- assayDetails: NCI tumour cell line growth inhibition, 48 h
Active and inactive are the calls of the source. Rule as the data show it: active = GI50 up to about 1.1 µM and inactive = higher.
// one of TRUE for active, FALSE for inactive, no free text

Examples with answers:
{"columns": ["compound", "answerLabel"],
 "data": [
  ["Cc1[nH]c2ccccc2c1C1=CC(=O)N(c2ccccc2)C1=O", "FALSE"],
  ["CC[C@H]1C=CCC[C@@]2(C[C@@H]3CC[C@H]4[C@@H](C(=O)OCCCCCCCCCCCCCCCC(=O)N(CCCN)C[C@@H](O)CCN)[C@@]5(CCC[C@@H](C)O5)NC(=[N+]34)N2)O1", "FALSE"],
  ["CCOC(=O)C1=C(C)N(C2OC(COC(=O)c3ccccc3)C(OC(=O)c3ccccc3)C2OC(=O)c2ccccc2)C(=S)NC1c1ccccc1 (configuration not stated)", "FALSE"],
  ["OCC1C2CCC3(OCCO3)C12 (configuration not stated)", "FALSE"],
  ["O=C(Cc1c(C(=O)Nc2ccccc2)sc(C(=O)Nc2ccccc2)c1CC(=O)Nc1ccccc1)Nc1ccccc1", "FALSE"]
]}

Incoming: Tell me the recorded outcome of this test for COc1ccc2nccc(NCCCN3CCN(CCCNc4ccnc5ccc(OC)cc45)CC3)c2c1 .
Outgoing: FALSE

Incoming: Cool, now CC(=O)O[C@H]1C(=O)[C@]2(C)[C@@H](OC(=O)OCC(O)CO)C[C@H]3OC[C@@]3(OC(C)=O)[C@H]2[C@H](OC(=O)c2ccccc2)[C@]2(O)C[C@H](OC(=O)[C@H](O)[C@@H](NC(=O)c3ccccc3)c3ccccc3)C(C)=C1C2(C)C (some centres not stated) [PACLITAXEL CERIBATE]
Outgoing: TRUE

Incoming: Moving on to the next compound: COc1cc(C2C(C(=O)Nc3ccc(Cl)c(Cl)c3)=C(C)NC(C)=C2C(=O)Nc2ccc(Cl)c(Cl)c2)ccc1O
Outgoing: FALSE

Incoming: Thanks! And CC(C)=NNC(=S)NC12CC3CC(CC(C3)C1)C2 ?
Outgoing: FALSE

Incoming: Please answer likewise for CCN1CCC(O)(/C=C/c2cccc(C)c2)C(C(=O)/C=C/c2cccc(C)c2)C1 (configuration not stated)
Outgoing: FALSE

Incoming: Consider next the compound Cc1ccc(S(=O)(=O)NCc2cccc([N+](=O)[O-])c2)cc1 in the same way.
Outgoing: FALSE

Incoming: // next record O=C(Cn1c2ccc(Br)cc2c2nc3ccccc3nc21)NC1CCCCC1
Outgoing: FALSE

Incoming: What would you report for CC(OC(C)(C)C)[C@H](NC(=O)OCC(Cl)(Cl)Cl)C(=O)O (some centres not stated) ?
Outgoing: FALSE

Incoming: Next: CN(C)c1ccc(/C(Br)=C2\OC(=O)c3ccccc32)cc1
Outgoing: FALSE

Incoming: And CCc1cccc(CC)c1Nc1nc(-c2ccccc2-c2ccccc2)cs1 ?
Outgoing: FALSE

Incoming: Same question for COc1ccc(S(=O)(=O)Nc2ccc(-c3csc(N4C(=O)/C(=C/C=C\c5ccccc5)N=C4c4ccccc4)n3)cc2)cc1Cl please.
Outgoing: FALSE

Incoming: Same for O=c1[nH]c(=O)n(C2OC(CO)C(O)C2O)c2ncc(-c3ccc(-c4ccccc4)cc3)nc12 (configuration not stated)
Outgoing: FALSE

Incoming: Lookup C=C(C)CCN(C(=O)OC(C)(C)C)c1cc(C(C)C)co1
Outgoing: FALSE

Incoming: Same read-out for CC1OC2(CC(OCc3ccccc3)C1OCc1ccccc1)OCCO2 (configuration not stated) ?
Outgoing: FALSE

Incoming: Record: O=c1[nH]c2cc3cccnc3c(Cl)c2nc1CBr
Outgoing: FALSE

Incoming: Same read-out for O=C1CCc2ccc(O)c(c2)Oc2ccc(cc2)C(Sc2ccccc2)CCO1 (configuration not stated) ?
Outgoing: FALSE

Incoming: Can you check COc1cc(OCc2ccc3nc(OC)c(OC)nc3c2)cc(OC)c1OC next?
Outgoing: FALSE

Incoming: Now try OCC(CO)C1c2cccc3ccc4cccc1c4c23 .
Outgoing: FALSE

Incoming: Consider next the compound Cn1cc(NC(=O)c2cc(NC(=O)Nc3cc(C(=O)Nc4cc(C(=O)NCCC(=N)N)n(C)c4)n(C)c3)cn2C)cc1C(=O)NCCC(=N)N in the same way.
Outgoing: FALSE

Incoming: // same read-out, input: O=C1CCC(=O)C1=NNc1cc(Cl)cc(Cl)c1
Outgoing: FALSE

Incoming: Subsequent entry: CCCNC(=S)NNC(=O)CSc1nc(-c2ccccc2)c(-c2ccccc2)[nH]1
Outgoing: FALSE

----------
GI50 by entry:
- System: BT-549
- assayDetails: NCI tumour cell line growth inhibition, 48 h
The source made the active and inactive calls. No stated cut-off is given here; in the data, active = GI50 up to about 1.1 µM and inactive = higher.

{"columns": ["molecule", "valueMeasured"],
 "data": [
  ["COC(=O)C1CCC(=O)N1C(c1ccccc1)c1cc(OC)c(OC)c(OC)c1 (stereo not drawn)", "92.7 µM (inactive)"],
  ["O=Cc1cc2c(o1)C(=O)c1ccccc1C2=O", "0.757 µM (active)"],
  ["CCOC(=O)c1ccc(N(CCOS(=O)(=O)c2ccc(C)cc2)CCOS(=O)(=O)c2ccc(C)cc2)cc1", "> 100 µM (inactive)"],
  ["COc1cc2c(/C=C3/C(=O)N(c4ccccc4)c4ccccc43)c(Cl)[nH]c2cc1C", "2.48 µM (inactive)"],
  ["C[C@@]12CCC3C1C=C1C(=O)c4cc(O)ccc4C(=O)[C@]1(O2)[C@@]3(C)C=O", "2.51 µM (inactive)"]
]}

Incoming: Query for BT-549: what GI50 does the record show for C=C1C(=O)OC2/C=C(/C)C(OC(C)=O)CC(O)/C(C)=C\C(OC(=O)/C(C)=C\C)C12 (stereo not drawn) ?
Outgoing: 53.5 µM (inactive)

Incoming: Next: Cc1ccc(/C=N/Nc2ccc3ccccc3n2)s1
Outgoing: 18.2 µM (inactive)

Incoming: Moving on to CC[C@]1(Cc2ccc(OC)c(OC)c2)C=[N+]([O-])O[C@H](OC2CCCCC2c2ccccc2)[C@@H]1OC(C)=O (stereo partly drawn)
Outgoing: 70.8 µM (inactive)

----------
- System: EKVX
- assayDetails: NCI tumour cell line growth inhibition, 48 h
Calls of active or inactive are those of the source. Cut-off read from the data, not from the text of the source: active = GI50 up to about 1.1 µM and inactive = higher.
Result category, one only: class 1 = active, class 0 = inactive

{"columns": ["compound", "answerLabel"],
 "data": [
  ["c1ccc2nn(C3CCCCO3)nc2c1 (stereo not drawn)", "class 0"],
  ["COc1cc2c(oc(=O)c3c4oc([Si](C)(C)C)cc4cc(OC)c23)c2cccc(O)c12", "class 0"],
  ["Cc1cccc2nc3cccc(C(=O)NCCC[N+](C)(CCCNC(=O)c4cccc5nc6cccc(C)c6nc45)Cc4c([N+](=O)[O-])ncn4C)c3nc12", "class 0"],
  ["CCOC(=O)Cc1nc2sc(S(N)(=O)=O)nn2c1Br", "class 0"],
  ["CC1CC[P+](c2ccccc2)(c2ccccc2)CC1", "class 0"]
]}

Incoming: Called result for Cc1ccc(S(=O)(=O)NC(=O)Nc2ccc(S(N)(=O)=O)cc2S(N)(=O)=O)cc1
Outgoing: class 0

Incoming: Please do the same for CCOC(=O)c1sc2c(C(=O)OCC)n3cc(C)cc(C)c3c2c1O as well.
Outgoing: class 0

----------
- System: DMS-273
- assayDetails: NCI tumour cell line growth inhibition, 48 h
Structures can show the parent of a compound that is named as a salt. Activity calls are given as the source filed them. No stated cut-off is given here; in the data, active = GI50 up to about 1.1 µM and inactive = higher.
Please answer using one outcome listed in y = active, n = inactive

Below, 8 compounds whose answers are already recorded.
{"columns": ["compound", "answerLabel"],
 "data": [
  ["COc1cc2[nH]c3c(c2cc1OC)CCN[C@]31CC[C@]2(CC3c4c(cc(OC)c(O)c42)CCN3C)C[C@H]1OC (some centres undefined)", "n"],
  ["O=NN1C(c2ccccc2)CCCC1c1ccccc1 (centres undefined)", "n"],
  ["CCOC(OC1=C(C#N)CCC1)C(C)[Se]c1ccccc1 (centres undefined)", "n"],
  ["CC(C)(C)C[P+](C)(C)c1ccccc1", "n"],
  ["CCCCCCCCCCCCC(=O)OC(c1cnco1)c1nc(C(O)CC(O)C(O)C(C)O)co1 (centres undefined)", "y"],
  ["CCN(CC)CC(=O)Nc1ccc2c(c1)C(=O)c1ccc(NC(=O)CN(CC)CC)cc1C2=O", "n"],
  ["Cc1ccc(S(=O)OCC23CC4CC(CC(C4)C2)C3)cc1 (centres undefined)", "n"],
  ["CN1c2ccccc2N(C(=O)c2ccccc2)C(CC(=O)O)c2cccn21 (centres undefined)", "n"]
]}

Incoming: Status in this test for O=c1[nH]c(C2CCCCC2)nc2c(Cl)cccc12 ?
Outgoing: n

Incoming: Next record, please: COC(=O)C1=CO[C@@H](C)[C@@H]2Cn3ccc4c5ccccc5nc-4c3C[C@H]12 [ALSTONINE HYDROCHLORIDE]
Outgoing: n

Incoming: Repeat for the following compound: O=C(CCc1nnc(S)[nH]1)Nc1ccc(Cl)c(Cl)c1
Outgoing: n

Incoming: O=C1C2c3[nH]c4ccccc4c3C3CCC(c4ccccc4)CC3C2C(=O)N1c1ccccc1 (centres undefined) , same question.
Outgoing: n

Incoming: Entry to check: Nc1nc2c(N)cc(C(F)(F)F)cc2nc1-c1ccccc1
Outgoing: n

Incoming: What would you report for CCOC(=O)C(=O)CC1=Nc2ccccc2SC(c2cccc(C)c2)C1 (centres undefined) ?
Outgoing: n

Incoming: Would you mind doing CCOC(=O)C(Cc1ccccc1)NC(=O)c1ccc(/N=N/N(C)C)cc1 (centres undefined) as well?
Outgoing: n
